Readings of pIC50 for the listed compounds
tested on: SW 1116; experiment: cells; format: functional, cell-based; conditions: Homo sapiens
Description: SANGER: Inhibition of human SW1116 cell growth in a cell viability assay.
pIC50: −log10 of the molar value.
Endpoint Label: pIC50

>  <Compound>
C[C@]1(c2nc3c(C(N)=O)cccc3[nH]2)CCCN1 [VELIPARIB]

>  <Tested System>
SW 1116

>  <Endpoint Label>
pIC50

>  <Experimental Result>
< 5.30

$$$$
>  <Compound>
Cn1cc(/C=C2\C(=O)Nc3cccnc32)c2ccccc21

>  <Tested System>
SW 1116

>  <Endpoint Label>
pIC50

>  <Experimental Result>
< 5.70

$$$$
>  <Compound>
CC(=O)c1c(C)c2cnc(Nc3ccc(N4CCNCC4)cn3)nc2n(C2CCCC2)c1=O [PALBOCICLIB]

>  <Tested System>
SW 1116

>  <Endpoint Label>
pIC50

>  <Experimental Result>
< 5.40

$$$$
>  <Compound>
C[C@]12O[C@H](C[C@]1(O)CO)n1c3ccccc3c3c4c(c5c6ccccc6n2c5c31)CNC4=O [LESTAURTINIB]

>  <Tested System>
SW 1116;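 further: growth inhibition of SW1116 cells, read out with a cell viability assay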

>  <Endpoint Label>
pIC50

>  <Experimental Result>
< 5.70

$$$$

---

system: CAS-1; assay: cells; format: functional, cell-based; conditions: Homo sapiens;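 further: growth inhibition of CAS-1 cells, measured with a cell viability assay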
Description: SANGER: Inhibition of human CAS-1 cell growth in a cell viability assay.
Endpoint Label: IC50

>  <Molecule>
C[C@]1(c2nc3c(C(N)=O)cccc3[nH]2)CCCN1

>  <Endpoint Label>
IC50

>  <Experimental Result>
> 5000 nM

$$$$
>  <Molecule>
CCn1c(-c2nonc2N)nc2cnc(Oc3cccc(NC(=O)c4ccc(OCCN5CCOCC5)cc4)c3)cc21 [GSK-269962A]

>  <Endpoint Label>
IC50

>  <Experimental Result>
847 nM

$$$$
>  <Molecule>
C[C@]12O[C@H](C[C@]1(O)CO)n1c3ccccc3c3c4c(c5c6ccccc6n2c5c31)CNC4=O

>  <Endpoint Label>
IC50

>  <Experimental Result>
> 2000 nM

$$$$
>  <Molecule>
Fc1cc(-c2cc[nH]/c(=N/c3ccc(-n4cnc(N5CCOCC5)n4)cc3)n2)cc(N2CCOCC2)c1

>  <Endpoint Label>
IC50

>  <Experimental Result>
2230 nM

$$$$
>  <Molecule>
O=c1cc(N2CCOCC2)oc2c(-c3cccc4c3sc3ccccc34)cccc12

>  <Endpoint Label>
IC50

>  <Experimental Result>
> 2000 nM

$$$$
>  <Molecule>
CCCS(=O)(=O)Nc1ccc(F)c(C(=O)c2c[nH]c3ncc(Cl)cc23)c1F

>  <Endpoint Label>
IC50

>  <Experimental Result>
> 10000 nM

$$$$
>  <Molecule>
Cc1nc(Nc2ncc(C(=O)Nc3c(C)cccc3Cl)s2)cc(N2CCN(CCO)CC2)n1

>  <Endpoint Label>
IC50

>  <Experimental Result>
> 1280 nM

$$$$
>  <Molecule>
Cc1[nH]c(/C=C2\C(=O)Nc3ccc(S(=O)(=O)Cc4c(Cl)cccc4Cl)cc32)c(C)c1C(=O)N1CCC[C@@H]1CN1CCCC1

>  <Endpoint Label>
IC50

>  <Experimental Result>
> 2000 nM

$$$$

---

tested on: MN-60; assay: cells; assay type: functional, cell-based; conditions: Homo sapiens
Description: SANGER: Inhibition of human MN-60 cell growth in a cell viability assay.
Endpoint Label: IC50 (nM)

>  <Smiles Structure>
CO[C@@]12[C@H](COC(N)=O)C3=C(C(=O)C(C)=C(N)C3=O)N1C[C@@H]1N[C@@H]12

>  <Inequality Symbol>
=

>  <Experimental Result>
1260

$$$$
>  <Smiles Structure>
O=c1cc(N2CCOCC2)oc2c(-c3cccc4c3sc3ccccc34)cccc12

>  <Inequality Symbol>
>

>  <Experimental Result>
2000

$$$$
>  <Smiles Structure>
Cc1n[nH]c2ccc(-c3cncc(OC[C@@H](N)Cc4c[nH]c5ccccc45)c3)cc12

>  <Inequality Symbol>
=

>  <Experimental Result>
487

$$$$
>  <Smiles Structure>
CC(=O)c1c(C)c2cnc(Nc3ccc(N4CCNCC4)cn3)nc2n(C2CCCC2)c1=O

>  <Inequality Symbol>
=

>  <Experimental Result>
2310

$$$$
>  <Smiles Structure>
Cn1c(=O)n(-c2ccc(C(C)(C)C#N)cc2)c2c3cc(-c4cnc5ccccc5c4)ccc3ncc21

>  <Inequality Symbol>
=

>  <Experimental Result>
38

$$$$
>  <Smiles Structure>
Cc1[nH]c(/C=C2\C(=O)Nc3ccc(S(=O)(=O)Cc4c(Cl)cccc4Cl)cc32)c(C)c1C(=O)N1CCC[C@@H]1CN1CCCC1

>  <Inequality Symbol>
>

>  <Experimental Result>
2000

$$$$

---

tested on: SK-MEL3; experiment: cells; assay type: functional, cell-based, SK-MEL-3; conditions: Homo sapiens
Description: SANGER: Inhibition of human SK-MEL-3 cell growth in a cell viability assay.
pIC50: −log10 of the molar value.
Endpoint Label: pIC50

>  <Compound>
CCNC(=O)c1noc(-c2cc(C(C)C)c(O)cc2O)c1-c1ccc(CN2CCOCC2)cc1 [LUMINESPIB]

>  <Inequality Symbol>
=

>  <Experimental Result>
7.32

$$$$
>  <Compound>
CC[C@]1(O)C[C@@H]2CN(CCc3c([nH]c4ccccc34)[C@@](C(=O)OC)(c3cc4c(cc3OC)N(C)[C@H]3[C@@](O)(C(=O)OC)[C@H](OC(C)=O)[C@]5(CC)C=CCN6CC[C@]43[C@@H]65)C2)C1 [VINBLASTINE]

>  <Inequality Symbol>
<

>  <Experimental Result>
7.00

$$$$
>  <Compound>
CC(C)=CC[C@@H](O)C1=CC(=O)c2c(O)ccc(O)c2C1=O [SHIKONIN]

>  <Inequality Symbol>
=

>  <Experimental Result>
5.58

$$$$
>  <Compound>
Cn1cc(/C=C2\C(=O)Nc3cccnc32)c2ccccc21

>  <Inequality Symbol>
<

>  <Experimental Result>
5.70

$$$$
>  <Compound>
N#C/C(=C1/Nc2ccccc2S1)c1ccnc(NCCc2cccnc2)n1

>  <Inequality Symbol>
<

>  <Experimental Result>
5.10

$$$$

---

test system: T-24; test: cells; format: functional, cell-based; details: Homo sapiens
Description: SANGER: Inhibition of human T-24 cell growth in a cell viability assay.
Decision: IC50 beneath 0.2 µM gives Condition met; IC50 meeting or exceeding 0.2 µM gives Condition not met.

>  <Molecule>
CCNC(=O)c1noc(-c2cc(C(C)C)c(O)cc2O)c1-c1ccc(CN2CCOCC2)cc1

>  <Assigned Category>
Condition met

$$$$
>  <Molecule>
CO[C@@]12[C@H](COC(N)=O)C3=C(C(=O)C(C)=C(N)C3=O)N1C[C@@H]1N[C@@H]12

>  <Assigned Category>
Condition not met

$$$$
>  <Molecule>
C/C(O)=C(\C#N)C(=O)Nc1cc(Br)ccc1Br

>  <Assigned Category>
Condition not met

$$$$
>  <Molecule>
O=c1[nH]c2ccccc2n1C1CCN(Cc2ccc(-c3nc4cc5[nH]cnc5cc4nc3-c3ccccc3)cc2)CC1

>  <Assigned Category>
Condition not met

$$$$
>  <Molecule>
CC[C@]1(O)C[C@@H]2CN(CCc3c([nH]c4ccccc34)[C@@](C(=O)OC)(c3cc4c(cc3OC)N(C)[C@H]3[C@@](O)(C(=O)OC)[C@H](OC(C)=O)[C@]5(CC)C=CCN6CC[C@]43[C@@H]65)C2)C1

>  <Assigned Category>
Condition met

$$$$
>  <Molecule>
COc1cc(Nc2c(C#N)cnc3cc(OCCCN4CCN(C)CC4)c(OC)cc23)c(Cl)cc1Cl

>  <Assigned Category>
Condition not met

$$$$
>  <Molecule>
O=c1cc(N2CCOCC2)oc2c(-c3cccc4c3sc3ccccc34)cccc12

>  <Assigned Category>
Condition not met

$$$$
>  <Molecule>
Fc1cc(-c2cc[nH]/c(=N/c3ccc(-n4cnc(N5CCOCC5)n4)cc3)n2)cc(N2CCOCC2)c1

>  <Assigned Category>
Condition not met

$$$$
>  <Molecule>
CC(O)(CS(=O)(=O)c1ccc(F)cc1)C(=O)Nc1ccc(C#N)c(C(F)(F)F)c1 (stereo not given) [BICALUTAMIDE]

>  <Assigned Category>
Condition not met

$$$$
>  <Molecule>
CC(=O)c1c(C)c2cnc(Nc3ccc(N4CCNCC4)cn3)nc2n(C2CCCC2)c1=O

>  <Assigned Category>
Condition not met

$$$$

---

Readings of pIC50 for the listed molecules
test system: SIG-M5; experiment: cells; format: functional, cell-based; conditions: Homo sapiens
Description: SANGER: Inhibition of human SIG-M5 cell growth in a cell viability assay.
pIC50: −log10 of the molar value.

>  <Molecule>
CC(O)(CS(=O)(=O)c1ccc(F)cc1)C(=O)Nc1ccc(C#N)c(C(F)(F)F)c1 (stereo unspecified) [BICALUTAMIDE]

>  <Tested System>
SIG-M5

>  <pIC50>
< 5.99

$$$$
>  <Molecule>
O=c1[nH]c2ccccc2n1C1CCN(Cc2ccc(-c3nc4cc5[nH]cnc5cc4nc3-c3ccccc3)cc2)CC1

>  <Tested System>
SIG-M5

>  <pIC50>
< 5.59

$$$$
>  <Molecule>
Cc1[nH]c(/C=C2\C(=O)Nc3ccc(S(=O)(=O)Cc4c(Cl)cccc4Cl)cc32)c(C)c1C(=O)N1CCC[C@@H]1CN1CCCC1 [PHA-665752]

>  <Tested System>
SIG-M5

>  <pIC50>
< 5.70

$$$$
>  <Molecule>
CO[C@@]12[C@H](COC(N)=O)C3=C(C(=O)C(C)=C(N)C3=O)N1C[C@@H]1N[C@@H]12 [MITOMYCIN]

>  <Tested System>
SIG-M5

>  <pIC50>
> 7.20

$$$$
>  <Molecule>
CCNc1cc(N[C@H]2CC[C@@H](O)CC2)nc(Nc2ccc3c(ccn3Cc3ccccc3)c2)n1

>  <Tested System>
SIG-M5

>  <pIC50>
< 5.29

$$$$
>  <Molecule>
CCn1c(-c2nonc2N)nc2cnc(Oc3cccc(NC(=O)c4ccc(OCCN5CCOCC5)cc4)c3)cc21 [GSK-269962A]

>  <Tested System>
SIG-M5;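 further: cell viability assay read-out, measuring how strongly growth of cultured human SIG-M5 cells is inhibited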

>  <pIC50>
< 5.60

$$$$
